FYI, the data here is from paper PMC4336329.

This section presents compounds with their documented hERG current change (%, negative = inhibition) at 10uM values.
Target: human ether-à-go-go-related gene (hERG) potassium channel (human, UniProt Q12809);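 note: peak tail current of the secondary pulse compared with the same well before compound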
Sequence (Q12809 whole entry, looked up): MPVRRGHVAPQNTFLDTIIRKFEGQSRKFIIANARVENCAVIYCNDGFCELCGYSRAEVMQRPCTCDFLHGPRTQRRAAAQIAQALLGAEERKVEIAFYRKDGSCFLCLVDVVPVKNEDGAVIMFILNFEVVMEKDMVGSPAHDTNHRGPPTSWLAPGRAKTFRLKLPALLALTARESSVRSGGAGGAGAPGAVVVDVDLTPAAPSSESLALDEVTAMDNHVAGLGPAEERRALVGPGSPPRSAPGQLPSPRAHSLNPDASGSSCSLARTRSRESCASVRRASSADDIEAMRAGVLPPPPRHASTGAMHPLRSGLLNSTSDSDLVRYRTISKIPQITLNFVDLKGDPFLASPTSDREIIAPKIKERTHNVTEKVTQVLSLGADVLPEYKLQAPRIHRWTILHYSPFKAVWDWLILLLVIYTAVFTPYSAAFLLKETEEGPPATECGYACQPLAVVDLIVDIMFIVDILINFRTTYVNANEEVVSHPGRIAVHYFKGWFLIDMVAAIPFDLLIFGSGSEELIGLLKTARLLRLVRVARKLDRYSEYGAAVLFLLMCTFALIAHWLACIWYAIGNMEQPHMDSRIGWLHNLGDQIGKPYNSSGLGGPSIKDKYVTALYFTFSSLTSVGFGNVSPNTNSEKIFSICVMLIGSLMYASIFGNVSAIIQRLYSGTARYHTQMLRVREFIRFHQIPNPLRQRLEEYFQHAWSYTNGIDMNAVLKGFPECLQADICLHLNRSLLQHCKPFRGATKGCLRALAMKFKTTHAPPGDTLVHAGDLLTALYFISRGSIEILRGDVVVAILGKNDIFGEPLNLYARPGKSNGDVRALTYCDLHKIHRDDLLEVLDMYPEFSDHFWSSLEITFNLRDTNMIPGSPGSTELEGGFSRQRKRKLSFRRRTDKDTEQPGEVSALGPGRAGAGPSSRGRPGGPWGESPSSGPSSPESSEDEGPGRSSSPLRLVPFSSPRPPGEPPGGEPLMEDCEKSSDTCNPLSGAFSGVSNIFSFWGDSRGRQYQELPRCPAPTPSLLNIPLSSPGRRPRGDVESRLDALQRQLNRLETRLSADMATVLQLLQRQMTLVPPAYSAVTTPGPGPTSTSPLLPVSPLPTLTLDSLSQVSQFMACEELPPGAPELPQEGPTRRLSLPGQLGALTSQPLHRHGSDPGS
Test: primary screen, population patch clamp on CHO cells stably expressing hERG; higher = less effect of the substance
Screen size: about 310,000 compounds; about 14,000 (4.5%) showed an effect of 50% or more. The effect is printed as a negative number. The full list was thinned out, with strong results kept by preference.
measurement.label: hERG current change (%, negative = inhibition) at 10uM (%)

compound	assay.result
CCOc1ccc(CCNc2cc(C)nc3ncnn23)cc1OCC	-5
CC(OC(=O)CNC(=O)c1ccco1)C(=O)Nc1ccc(Cl)cn1 (centres unmarked)	-11.4
O=C(/C=C/c1ccccc1Cl)N1CCCN(C(=O)/C=C/c2ccccc2Cl)CC1	-26.1
COc1cc2c3nnc(-c4ccc(F)cc4)c-3cn(Cc3cccc(F)c3)c2cc1OC	29.7
Cc1ccc(C(=O)NCCCn2ccnc2)cn1	4.36

* * *

The reader will find reported hERG current change (%, negative = inhibition) at 10uM values listed item by item below.
Target: human ether-à-go-go-related gene (hERG) potassium channel (human);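 note: peak tail current of the secondary pulse compared with the same well before compound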
Assay: primary screen, population patch clamp on CHO cells stably expressing hERG; higher = less effect of the substance
About 14,000 (4.5%) of roughly 310,000 compounds showed an effect of 50% or more. The effect is printed as a negative number. What follows is part of a selection rich in strong results, with near analogues and random picks from the rest.
measurement.label: hERG current change (%, negative = inhibition) at 10uM (%)

compound	assay.result
CCN1CCN(CCCNC(=O)CCC(=O)N2CCOc3ccccc32)CC1	-13
O=C(NC1CCCCC1)c1ccc(-c2cccc([N+](=O)[O-])c2)o1	12.4
O=C(NCCOC(=O)c1ccccc1)c1ccccc1	10.2
Cc1cccc(NC(=O)CN2C(=O)CSC2=O)c1	14.5
COc1cc(C)c(CN2CC=C(c3ccc(F)cc3)CC2)cc1C	-37.2
O=C(NC1CCC(O)CC1)c1ccc(-c2ccc(Cl)cc2)o1 (stereo not shown)	-21.8
CCOC(=O)C1CCCN(C(=S)Nc2cccc(Cl)c2)C1 (stereo not shown)	-5.74
O=C(NC1CCCCC1)C1COc2ccccc2O1 (stereo not shown)	-7.19
Cc1cc(NCCCn2ccnc2)n2nc(C)c(-c3ccccc3)c2n1	-72.8
CC(C)=CC(=O)O[C@H]1[C@@H]2[C@H](C)C(=O)O[C@@H]2C[C@@H](C)[C@@H]2[C@@H](O)CC(=O)[C@]21C	22.4
O=C(CCC(=O)N1CCOc2ccc(Cl)cc21)NCCCN1CCN(c2ccccc2F)CC1	-66.5
CCCC(C)c1nnc(NC(=O)C2CC(=O)N(CCc3ccc(F)cc3)C2)s1 (stereo not shown)	-30.1
O=C(NC1CCC(O)CC1)c1ccc(-c2ccc([N+](=O)[O-])cc2)o1 (stereo not shown)	-76.2
O=C(NC1CCN(Cc2ccccc2)CC1)C1COc2ccccc2O1 (stereo not shown)	-57.5
COc1cccc(CN2CC=C(c3ccc(F)cc3)CC2)c1	-26.5
O=C(NC1CN2CCC1CC2)c1ccc(-c2ccc([N+](=O)[O-])cc2)o1 (stereo not shown)	-64
CN(C)c1ccc(CN2CC=C(c3ccc(F)cc3)CC2)cc1	-69.9
O=[N+]([O-])c1ccccc1CN1CC=C(c2ccc(F)cc2)CC1	-12.8
COC(=O)c1cc(COC(=O)c2cccnc2SC)oc1C	-5.24
CCN(CC)c1ccc(CN2CC=C(c3ccc(F)cc3)CC2)cc1	-78.4
O=C(C1COc2ccccc2O1)N1CCN(Cc2ccccc2)CC1 (stereo not shown)	-7.63
Cc1ccc(S(=O)(=O)N2CCN(C(=O)Cc3ccccc3)CC2)cc1C	-2.97
